B1: Pistol ribozyme (parent)
chain: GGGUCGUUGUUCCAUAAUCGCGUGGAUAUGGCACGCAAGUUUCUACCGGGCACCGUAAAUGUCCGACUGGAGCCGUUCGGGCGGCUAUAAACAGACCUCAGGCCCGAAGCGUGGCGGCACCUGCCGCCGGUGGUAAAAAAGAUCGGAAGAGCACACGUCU

# Variants of: B1
# procedure-summary: aptazyme ON/OFF ratio, guanine; higher = stronger switching; co-transcriptional cleavage with and without guanine
quantity-name: aptazyme ON/OFF ratio
No unit in the answer, please; the number alone is enough.

mutation-code	reported-result
U7A U8G G9A U10A U11G C13A	1.13
U7G U8A G9C U10G C12U C13A	1.06
U7C U8G G9A C13U	1.11
U8A G9U U10G U11A C12G C13A	1.27
U7G G9C U10A U11G C12A C13A	1.07
U7A U8G G9C U10G U11C C12G	1.3

[in] Requested field: aptazyme ON/OFF ratio. Item: U10C U11A C13G
[out] 1.08

[in] Requested field: aptazyme ON/OFF ratio. Item: U7G G9C U10C
[out] 2.77

[in] Requested field: aptazyme ON/OFF ratio. Item: U7G U8G G9U U11C C12U
[out] 1.65

[in] Requested field: aptazyme ON/OFF ratio. Item: U7G G9U U10A C12G
[out] 1.59

[in] Requested field: aptazyme ON/OFF ratio. Item: G9A U10A C12U
[out] 1.86

Measured values drawn from the RNAGym collection of RNA variant scans (doi:10.1021/acssynbio.7b00057) for this set.
